- Test: amyloid nucleation score (Sup35N fusion, yeast selection) (log enrichment); library NNK2; higher = more nucleation; inactive = no reads after selection;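 also: zero at mode of non-aggregating sequences after 7 days selection at 30°C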
Reported Endpoint: amyloid nucleation score

>>> df
         query_sequence  reported_value
0  KFIEHWYVFGYIFLRFYKFQ          -0.623
1     SHYCGLVCLELEIWLYP            1.31
2  KDNLDQYFTERRGWWLCEVV          -0.043
3  NQNVSLGVTMCFNSNYDRQG            7.53
4  SIYVSALDGMYSGGRDLWKR           0.601
5  MRYSPWQGTHILWVLNTTSY            1.82
6  GSVGGSGIAACGTSDGGTVR            2.02
